Each entry below carries its recorded CC50 at 72 h.
test_summary: Cytotoxicity against human TZM-b1 cells after 3 days by XTT assay
Assay type: cell-based
condition_summary: TZM-b1 cells

# compound, CC50 at 72 h
data = [
    ("Cc1nc(C(NC(=O)C(=O)Nc2ccc(F)cc2F)C2CCCCN2)sc1CCO (mixture of isomers)", "> 84 µM"),
    ("Cc1nc(C(NC(=O)C(=O)Nc2ccc(Cl)cc2)C2CCCNC2)sc1CO (mixture of isomers)", "60.2 µM"),
    ("Cc1nc(C(NC(=O)C(=O)Nc2ccc(F)c(F)c2)C2CCCCN2)sc1CO (mixture of isomers)", "> 87 µM"),
    ("CC1(C)CC(NC(=O)C(=O)Nc2ccc(Cl)cc2)CC(C)(C)N1", "> 60 µM"),
    ("Cc1nc(C(NC(=O)C(=O)Nc2ccc(Cl)cc2)C2CCNCC2)sc1CO (racemic)", "81 µM"),
    ("Cc1nc(C(NC(=O)C(=O)Nc2ccc(F)c(Cl)c2)C2CCCCN2)sc1CO (mixture of isomers)", "> 77.8 µM"),
    ("C[C@@H](NC(=O)C(=O)Nc1ccc(Cl)cc1)[C@H](c1ccccc1)N1CCOCC1", "> 99.6 µM"),
    ("Cc1ccc(NC(=O)C(=O)NC(c2nc(C)c(CO)s2)C2CCCCN2)c(F)c1 (mixture of isomers)", "> 88 µM"),
]
